This listing pairs compounds with measured IC50.
Molecular target: COX2 DNA binding to HuR (Homo sapiens, UniProt Q15717)
Experiment: Inhibition of COX2 DNA binding to HuR
Conditions: replicate n2, read-out: IC50, n2

compound_structure_string: Cc1cccc2c3c(ccc12)C1=C(C(=O)C3=O)[C@@H](C)CO1
target_under_test: COX2 DNA binding to HuR (Homo sapiens, UniProt Q15717)
IC50: 0.332 µM
--
compound_structure_string: Nc1ccn([C@@H]2O[C@H](CO)[C@@H](O)C2(F)F)c(=O)n1
target_under_test: COX2 DNA binding to HuR (Homo sapiens, UniProt Q15717)
IC50: > 20 µM
--
compound_structure_string: O=C1[O][Pt]2([NH][C@@H]3CCCC[C@H]3[NH]2)[O]C1=O
target_under_test: COX2 DNA binding to HuR (Homo sapiens, UniProt Q15717)
IC50: > 20 µM

* * *

Biological target: VEGF DNA binding to HuR (Homo sapiens)
Sequence (Q15717 whole entry): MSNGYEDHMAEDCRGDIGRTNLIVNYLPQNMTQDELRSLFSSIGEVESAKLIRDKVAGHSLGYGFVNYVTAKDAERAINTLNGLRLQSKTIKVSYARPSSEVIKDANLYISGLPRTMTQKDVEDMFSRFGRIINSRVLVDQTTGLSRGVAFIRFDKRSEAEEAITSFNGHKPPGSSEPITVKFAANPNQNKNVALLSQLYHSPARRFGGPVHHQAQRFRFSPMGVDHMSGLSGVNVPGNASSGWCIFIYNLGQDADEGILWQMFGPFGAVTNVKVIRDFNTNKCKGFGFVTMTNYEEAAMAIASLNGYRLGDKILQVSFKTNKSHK
Assay: Inhibition of VEGF DNA binding to HuR
Details: replicate n1, read-out: IC50, n1
pIC50: −log10 of the molar value.
readout_label: pIC50

compound: Nc1ccn([C@@H]2O[C@H](CO)[C@@H](O)C2(F)F)c(=O)n1
readout_relation: <
meas_value: 4.70
--
compound: Cc1cc(/C=C/c2ccc3cc(N(C)C)ccc3[n+]2C)c(C)n1-c1ccccc1 [PP, pyrvinium pamoate]
readout_relation: =
meas_value: 6.73
--
compound: O=C1[O][Pt]2([NH][C@@H]3CCCC[C@H]3[NH]2)[O]C1=O
readout_relation: <
meas_value: 4.70
--
compound: Cc1cccc2c3c(ccc12)C1=C(C(=O)C3=O)[C@@H](C)CO1
readout_relation: =
meas_value: 5.97

* * *

Tested on: MIA-PaCa2
Assay: 5 day viability assay (Pico Green), MIA-PaCa2
Format: cell-based
Settings: Homo sapiens, MIA PaCa-2, 120 h
pIC50: −log10 of the molar value.

compound: Cc1cc(/C=C/c2ccc3cc(N(C)C)ccc3[n+]2C)c(C)n1-c1ccccc1 [PP, pyrvinium pamoate]
pIC50: 7.40

* * *

Molecular target: COX2 DNA binding to HuR (Homo sapiens, UniProt Q15717)
Experiment: Inhibition of COX2 DNA binding to HuR
Settings: replicate n2
Criterion: Max % I, n2 strictly under 90%. Met: met. Not met: not met.

molecule: CC(=O)O[C@H]1C(=O)[C@@]2(C)[C@H]([C@H](OC(=O)c3ccccc3)[C@]3(O)C[C@H](OC(=O)[C@H](O)[C@@H](NC(=O)c4ccccc4)c4ccccc4)C(C)=C1C3(C)C)[C@]1(OC(C)=O)CO[C@@H]1C[C@@H]2O [Paclitaxel]
discrete_label: met

molecule: O=C1[O][Pt]2([NH][C@@H]3CCCC[C@H]3[NH]2)[O]C1=O [Oxaliplatin]
discrete_label: not met

molecule: Cc1occ2c1C(=O)c1c(O)ccc(O)c1C2 [MS444]
discrete_label: not met

molecule: COc1ccc(C(CC(=O)N2CCCC2)c2c(OC)cc(OC)c3c(-c4ccccc4)cc(=O)oc23)cc1 (stereo not shown) [CMLD2]
discrete_label: met

molecule: Nc1ccn([C@@H]2O[C@H](CO)[C@@H](O)C2(F)F)c(=O)n1 [Gemcitabine]
discrete_label: not met

* * *

Test system: PDX-X139
Test: 5 day viability assay (Pico Green), PDX cell line
Assay type: cell-based
Conditions: 120 h

compound: Cc1cc(/C=C/c2ccc3cc(N(C)C)ccc3[n+]2C)c(C)n1-c1ccccc1 [PP, pyrvinium pamoate]
IC50: 9 nM

* * *

Biological target: VEGF DNA binding to HuR (Homo sapiens)
Assay: Inhibition of VEGF DNA binding to HuR
Settings: replicate n1, read-out: IC50, n1
readout_label: IC50 (nM)

compound: COc1ccc(C(CC(=O)N2CCCC2)c2c(OC)cc(OC)c3c(-c4ccccc4)cc(=O)oc23)cc1 (stereo not drawn) [CMLD2]
target_under_test: VEGF DNA binding to HuR (Homo sapiens)
meas_value: 1280
//
compound: Cc1occ2c1C(=O)c1c(O)ccc(O)c1C2 [MS444]
target_under_test: VEGF DNA binding to HuR (Homo sapiens)
meas_value: 15
//
compound: CC(=O)O[C@H]1C(=O)[C@@]2(C)[C@H]([C@H](OC(=O)c3ccccc3)[C@]3(O)C[C@H](OC(=O)[C@H](O)[C@@H](NC(=O)c4ccccc4)c4ccccc4)C(C)=C1C3(C)C)[C@]1(OC(C)=O)CO[C@@H]1C[C@@H]2O [Paclitaxel]
target_under_test: VEGF DNA binding to HuR (Homo sapiens)
meas_value: 5050

* * *

Target: HuR binding to target mRNA VEGF (Homo sapiens, UniProt Q15717)
Assay: Inhibition of HuR binding to target mRNA VEGF
Details: given as a range
This listing pairs compounds with measured IC50.
readout_label: IC50

compound: Nc1ccn([C@@H]2O[C@H](CO)[C@@H](O)C2(F)F)c(=O)n1 [Gemcitabine]
meas_value: > 20 µM
//
compound: Cc1cc(/C=C/c2ccc3cc(N(C)C)ccc3[n+]2C)c(C)n1-c1ccccc1 [PP, pyrvinium pamoate]
meas_value: 0.203 to 0.416 µM
//
compound: O=C1[O][Pt]2([NH][C@@H]3CCCC[C@H]3[NH]2)[O]C1=O [Oxaliplatin]
meas_value: > 20 µM

* * *

System: CFPAC
Test: 5 day viability assay (Pico Green), CFPAC
Assay type: cell-based
Conditions: 120 h
readout_label: IC50 (nM)

compound: Cc1cc(/C=C/c2ccc3cc(N(C)C)ccc3[n+]2C)c(C)n1-c1ccccc1 [PP, pyrvinium pamoate]
meas_value: 21

* * *

Target: COX2 DNA binding to HuR (Homo sapiens, UniProt Q15717)
Experiment: Inhibition of COX2 DNA binding to HuR
Conditions: replicate n1

compound: Cc1occ2c1C(=O)c1c(O)ccc(O)c1C2
Max % I, n1, %: 100.0
--
compound: O=C1[O][Pt]2([NH][C@@H]3CCCC[C@H]3[NH]2)[O]C1=O
Max % I, n1, %: 100.0
--
compound: Cc1cccc2c3c(ccc12)C1=C(C(=O)C3=O)[C@@H](C)CO1
Max % I, n1, %: 100.0
--
compound: Cc1cc(/C=C/c2ccc3cc(N(C)C)ccc3[n+]2C)c(C)n1-c1ccccc1 [PP, pyrvinium pamoate]
Max % I, n1, %: 88.8
--
compound: COc1ccc(C(CC(=O)N2CCCC2)c2c(OC)cc(OC)c3c(-c4ccccc4)cc(=O)oc23)cc1 (stereo not drawn)
Max % I, n1, %: 81.1
--
compound: Nc1ccn([C@@H]2O[C@H](CO)[C@@H](O)C2(F)F)c(=O)n1
Max % I, n1, %: 100.0

* * *

Molecular target: UniProt:Q15717
Assay: Inhibition of VEGF DNA binding to HuR
Conditions: replicate n2, read-out: IC50, n2
readout_label: log10(IC50) (log10 of the value in nM)

molecule: Cc1cccc2c3c(ccc12)C1=C(C(=O)C3=O)[C@@H](C)CO1
target_under_test: UniProt:Q15717
log10(IC50): 3.33
//
molecule: COc1ccc(C(CC(=O)N2CCCC2)c2c(OC)cc(OC)c3c(-c4ccccc4)cc(=O)oc23)cc1 (stereo not shown)
target_under_test: UniProt:Q15717
log10(IC50): 3.11
//
molecule: CC(=O)O[C@H]1C(=O)[C@@]2(C)[C@H]([C@H](OC(=O)c3ccccc3)[C@]3(O)C[C@H](OC(=O)[C@H](O)[C@@H](NC(=O)c4ccccc4)c4ccccc4)C(C)=C1C3(C)C)[C@]1(OC(C)=O)CO[C@@H]1C[C@@H]2O
target_under_test: UniProt:Q15717
log10(IC50): 3.76
//
molecule: Cc1cc(/C=C/c2ccc3cc(N(C)C)ccc3[n+]2C)c(C)n1-c1ccccc1 [PP, pyrvinium pamoate]
target_under_test: UniProt:Q15717
log10(IC50): 2.07
//
molecule: Cc1occ2c1C(=O)c1c(O)ccc(O)c1C2
target_under_test: UniProt:Q15717
log10(IC50): 1.23

* * *

This listing pairs compounds with measured pIC50.
Molecular target: UniProtKB Q15717
Assay: Inhibition of VEGF DNA binding to HuR
Conditions: mean of n1 and n2, read-out: Mean IC50
pIC50: −log10 of the molar value.

compound: CC(=O)O[C@H]1C(=O)[C@@]2(C)[C@H]([C@H](OC(=O)c3ccccc3)[C@]3(O)C[C@H](OC(=O)[C@H](O)[C@@H](NC(=O)c4ccccc4)c4ccccc4)C(C)=C1C3(C)C)[C@]1(OC(C)=O)CO[C@@H]1C[C@@H]2O [Paclitaxel]
readout_relation: =
pIC50: 5.27

compound: Nc1ccn([C@@H]2O[C@H](CO)[C@@H](O)C2(F)F)c(=O)n1 [Gemcitabine]
readout_relation: <
pIC50: 4.70

compound: COc1ccc(C(CC(=O)N2CCCC2)c2c(OC)cc(OC)c3c(-c4ccccc4)cc(=O)oc23)cc1 (stereo not shown) [CMLD2]
readout_relation: =
pIC50: 5.89

compound: Cc1occ2c1C(=O)c1c(O)ccc(O)c1C2 [MS444]
readout_relation: =
pIC50: 7.80

compound: O=C1[O][Pt]2([NH][C@@H]3CCCC[C@H]3[NH]2)[O]C1=O [Oxaliplatin]
readout_relation: <
pIC50: 4.70

compound: Cc1cc(/C=C/c2ccc3cc(N(C)C)ccc3[n+]2C)c(C)n1-c1ccccc1 [PP, pyrvinium pamoate]
readout_relation: =
pIC50: 6.83

compound: Cc1cccc2c3c(ccc12)C1=C(C(=O)C3=O)[C@@H](C)CO1 [DHTS]
readout_relation: =
pIC50: 5.82
